System: Gastrin/cholecystokinin type B receptor (Cavia porcellus)
experimentalDetails: Displacement of [125I]BH-CCK8 from CCK2 receptor in Hartley guinea pig cerebral cortex at 30 uM
Activity listing for selected molecules.

- molecule: "CCCCCN(CCCCC)C(=O)C(Cc1ccccc1)NC(=O)c1ccccc1NC(=O)c1cc2ccccc2[nH]1 (stereo not given)"
  Activity: "< 20%"
- molecule: "CCOC(=O)C(Cc1ccccc1)NC(=O)c1ccccc1NC(=O)c1cc2ccccc2[nH]1 (racemic)"
  Activity: "< 20%"
- molecule: "CSCC[C@H](NC(=O)c1ccccc1NC(=O)c1cc2ccccc2[nH]1)C(=O)O"
  Activity: "31%"
- molecule: "O=C(O)CCCNC(=O)c1ccccc1NC(=O)c1cc2ccccc2[nH]1"
  Activity: "< 20%"
- molecule: "O=C(O)CCNC(=O)c1ccccc1NC(=O)c1cc2ccccc2[nH]1"
  Activity: "< 20%"
